The reported numbers originate from patent US9695151B2.

- MEASURED_TARGET: human CYP11B1 (Homo sapiens (Human))
- ASSAY_REMARKS: G-402 cellular enzyme assay, human CYP11B1 (cortisol release)
- CONDITIONS: G-402 cells, 1 μM Deoxycortisol
Listed here are compounds together with their documented pEC50.
Note: pEC50 values are expressed as the negative base-10 logarithm of concentration in M.

Example entries begin here.
COMPOUND | OBSERVED_PROPERTY | RECORDED_VALUE
CC(=O)N1CC2(CC(Nc3cncc(N4C(=O)c5ccc(Cl)cc5C4(C)C)c3)C2)C1 | pEC50 | 5.16
CCC(=O)N1CC(Nc2cncc(N3C(=O)c4ccc(Cl)cc4[C@@H]3C)c2)C1 (single isomer, unassigned) | pEC50 | 5.38
CCS(=O)(=O)N1CC2(CC(Nc3cncc(N4C(=O)c5ccc(Cl)cc5C4(C)C)c3)C2)C1 | pEC50 | 5.13
CCC(=O)N1CCC(N(C)c2cncc(N3C(=O)c4ccc(Cl)cc4C3(C)C)c2)CC1 | pEC50 | 8.70

Measured pEC50 for this entry CC(C)S(=O)(=O)N1CCC(N(C)c2cncc(N3C(=O)c4ccc(Cl)cc4C3(C)C)c2)C1 (single isomer, unassigned) [Example 16] on human CYP11B1 (Homo sapiens (Human)): 6.93

Measured pEC50 for this entry "CCC(=O)N1CC(Nc2cncc(N3C(=O)c4ccc(Cl)cc4C3(C)C)c2)C1" on human CYP11B1 (Homo sapiens (Human)): 5.59

Measured pEC50 for this entry "CCC(=O)N1CC(N(C)c2cncc(N3C(=O)c4ccc(Cl)cc4C3(C)C)c2)C1" on human CYP11B1 (Homo sapiens (Human)): 7.07

Measured pEC50 for this entry CCCS(=O)(=O)N1CCC(N(C)c2cncc(N3C(=O)c4ccc(Cl)cc4C3(C)C)c2)C1 (single isomer, unassigned) [Example 18] on human CYP11B1 (Homo sapiens (Human)): 6.63

Measured pEC50 for this entry "CCC(=O)N1CC(Nc2cncc(N3C(=O)c4ccc(C#N)cc4C3(C)C)c2)C1" on human CYP11B1 (Homo sapiens (Human)): 5.23

###

- MEASURED_TARGET: human CYP11B1 (Homo sapiens (Human), UniProt P15538)
- Sequence (P15538 25-503): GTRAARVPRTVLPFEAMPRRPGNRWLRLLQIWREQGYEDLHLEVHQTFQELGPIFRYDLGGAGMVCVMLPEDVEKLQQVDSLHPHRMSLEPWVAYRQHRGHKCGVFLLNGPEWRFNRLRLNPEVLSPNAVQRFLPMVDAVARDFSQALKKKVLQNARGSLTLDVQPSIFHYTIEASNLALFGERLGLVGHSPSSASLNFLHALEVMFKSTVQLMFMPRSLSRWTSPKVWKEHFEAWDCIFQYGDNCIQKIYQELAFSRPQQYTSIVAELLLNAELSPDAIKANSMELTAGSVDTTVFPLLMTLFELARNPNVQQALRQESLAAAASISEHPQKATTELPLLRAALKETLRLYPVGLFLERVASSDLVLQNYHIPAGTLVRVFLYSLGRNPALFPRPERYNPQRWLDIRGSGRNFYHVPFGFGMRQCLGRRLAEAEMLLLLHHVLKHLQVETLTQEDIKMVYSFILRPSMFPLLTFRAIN
- ASSAY_REMARKS: G-402 cellular enzyme assay, human CYP11B1 (cortisol release)
- CONDITIONS: G-402 cells, 1 μM Deoxycortisol
OBSERVED_PROPERTY: EC50

Example entries begin here.
MOLECULE | OBSERVED_PROPERTY | RECORDED_VALUE
CCCS(=O)(=O)N1CC(N(C)c2cncc(N3C(=O)c4ccc(Cl)cc4C3(C)C)c2)C1 | EC50 | 0.025 µM
CN(c1cncc(N2C(=O)c3ccc(Cl)cc3C2(C)C)c1)C1CCN(S(C)(=O)=O)CC1 | EC50 | 0.003 µM
CCS(=O)(=O)N1CCC(Nc2cncc(N3C(=O)c4ccc(Cl)cc4C3(C)C)c2)CC1 | EC50 | 1.54 µM

"CCC(=O)N1CCC(Nc2cncc(N3C(=O)c4ccc(C#N)cc4C3(C)C)c2)CC1" has a reported EC50 of 6.99 µM

CC(C)S(=O)(=O)N1CCCC(Nc2cncc(N3C(=O)c4ccc(Cl)cc4C3(C)C)c2)C1 (single isomer, unassigned) [Example 26] has a reported EC50 of > 30 µM

"CCS(=O)(=O)N1CCC(N(C)c2cncc(N3C(=O)c4ccc(Cl)cc4C3(C)C)c2)CC1" has a reported EC50 of 0.0004 µM

"CCC(=O)N1CC2(CC(Nc3cncc(N4C(=O)c5ccc(Cl)cc5C4(C)C)c3)C2)C1" has a reported EC50 of 15.4 µM

CCS(=O)(=O)N1CC(Nc2cncc(N3C(=O)c4ccc(Cl)cc4C3C)c2)C1 (stereo not drawn) has a reported EC50 of 4.53 µM

"CC(C)S(=O)(=O)N1CC(N(C)c2cncc(N3C(=O)c4ccc(Cl)cc4C3(C)C)c2)C1" has a reported EC50 of 0.037 µM
